The measurements presented in this section are drawn from patent US4684650A.

# System: spontaneous hypertensive rats (SHR)
# run description: Antihypertensive effect in spontaneous hypertensive rats (SHR)
# Format: in vivo
# assay context: Rattus norvegicus, ip, 1 h, read-out: Antihypertensive eff. SHR, max eff. in % of 5 mg/kg ip, DAP, 5 mg/kg ip, diastolic pressure (DAP), max change within one hour
We use -30% as the dividing line for change in vivo at 5 mg/kg: on or above the line is true (1), below is false (0).

[[record]]
compound = "CSc1ccc2c(c1)[C@H](N1CCN(CCN3CCOC3=O)CC1)C[C@H]2c1ccc(F)cc1 (relative stereo)"
class_label = "true (1)"

[[record]]
compound = "CC(C)N1CCN(CCN2CCN([C@@H]3C[C@@H](c4ccc(F)cc4)c4ccc(F)cc43)CC2)C1=O (relative stereo)"
class_label = "true (1)"

[[record]]
compound = "Cc1ccc2c(c1)[C@H](N1CCN(CCN3CCOC3=O)CC1)C[C@H]2c1ccc(F)cc1 (relative stereo)"
class_label = "false (0)"

[[record]]
compound = "CN1CCN(CCN2CCN([C@@H]3C[C@@H](c4ccc(F)cc4)c4ccc(F)cc43)CC2)C1=O (single isomer, unassigned) [+3]"
class_label = "false (0)"

[[record]]
compound = "CN1CCN(CCN2CCN([C@@H]3C[C@@H](c4ccc(F)cc4)c4ccccc43)CC2)C1=O (relative stereo)"
class_label = "true (1)"

[[record]]
compound = "O=C1NCCN1CCN1CCN([C@@H]2C[C@@H](c3ccc(F)cc3)c3ccc(C(F)(F)F)cc32)CC1 (relative stereo)"
class_label = "true (1)"

[[record]]
compound = "Fc1ccc([C@@H]2C[C@@H](N3CCN(CCN4CCNC4=S)CC3)c3ccccc32)cc1 (relative stereo)"
class_label = "true (1)"

[[record]]
compound = "Fc1ccc([C@@H]2C[C@@H](N3CCN(CCN4CCCNC4=S)CC3)c3cc(F)ccc32)cc1 (relative stereo)"
class_label = "true (1)"

[[record]]
compound = "Cc1ccc2c(c1)[C@H](N1CCN(CCN3CCNC3=O)CC1)C[C@H]2c1ccc(F)cc1 (relative stereo)"
class_label = "false (0)"

[[record]]
compound = "CN1CCN(CCN2CCN([C@@H]3C[C@@H](c4ccc(F)cc4)c4ccc(F)cc43)CC2)C1=O (relative stereo) [compound 3]"
class_label = "true (1)"

[[record]]
compound = "O=c1[nH]c2ccccc2n1CCN1CCN([C@@H]2C[C@@H](c3ccc(F)cc3)c3ccc(F)cc32)CC1 (relative stereo)"
class_label = "true (1)"

[[record]]
compound = "O=C1NCCN1CCN1CCN([C@@H]2C[C@@H](c3ccc(F)cc3)c3ccccc32)CC1 (relative stereo)"
class_label = "false (0)"

[[record]]
compound = "OCCN1CCN([C@@H]2C[C@@H](c3ccc(F)cc3)c3ccc(C(F)(F)F)cc32)CC1 (racemic) [Tefludazine, reference compound]"
class_label = "true (1)"

